Data provenance is patent US20210047278A1.

ASSAY SYSTEM: FBW7^ARG (RLFBW7) alone (Homo sapiens, UniProt Q969H0, R505L)
Construct: GST (TEV site and flexible linker) (N, cleaved yes); made in house; host or cells: SF9 insect cells (baculovirus)
Sequence (Q969H0 64-707 R505L): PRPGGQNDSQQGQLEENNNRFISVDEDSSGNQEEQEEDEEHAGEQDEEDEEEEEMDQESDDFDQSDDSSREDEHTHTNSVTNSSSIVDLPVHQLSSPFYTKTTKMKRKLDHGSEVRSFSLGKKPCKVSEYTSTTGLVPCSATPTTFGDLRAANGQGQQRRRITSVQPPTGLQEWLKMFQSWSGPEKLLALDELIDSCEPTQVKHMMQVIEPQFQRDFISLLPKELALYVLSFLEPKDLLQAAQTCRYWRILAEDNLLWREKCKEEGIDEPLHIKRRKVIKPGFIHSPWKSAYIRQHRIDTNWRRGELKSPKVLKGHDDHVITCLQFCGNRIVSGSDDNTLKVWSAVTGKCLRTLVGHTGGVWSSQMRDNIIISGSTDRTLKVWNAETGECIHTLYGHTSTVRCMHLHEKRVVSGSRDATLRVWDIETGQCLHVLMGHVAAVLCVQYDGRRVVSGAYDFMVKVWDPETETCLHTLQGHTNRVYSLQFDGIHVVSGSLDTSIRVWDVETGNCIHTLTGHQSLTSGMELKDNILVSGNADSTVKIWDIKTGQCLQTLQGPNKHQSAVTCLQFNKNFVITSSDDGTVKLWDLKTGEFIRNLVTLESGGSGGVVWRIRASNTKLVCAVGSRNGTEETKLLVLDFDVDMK
Sequence (P63208 2-163 partner): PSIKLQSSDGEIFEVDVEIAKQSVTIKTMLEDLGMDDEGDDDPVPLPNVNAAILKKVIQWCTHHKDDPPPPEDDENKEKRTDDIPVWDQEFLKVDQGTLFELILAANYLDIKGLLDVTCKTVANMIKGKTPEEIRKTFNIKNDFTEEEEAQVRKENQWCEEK
PROTOCOL NOTES: Counterscreen 1 ALPHAscreen with FBW7^ARG alone (CSRUN1/DCSRUN1)
Type: binding
CONDITIONS USED: dose-response counterscreen, raw curve fit, read-out: RLFBW7 ACT DCSRUN1 EC50 Curve Fit Raw
pEC50: −log10 of the molar value.
Quick rule for you: pEC50 at 5 or higher means 1.0, lower means 0.0.

Previously resolved entries follow.
MOLECULE: Cc1cccc(NC(=O)N2CCC(c3nnc(C4CC4)s3)CC2)c1
ASSIGNED CLASS: 0.0
//
MOLECULE: CCN1C(=O)c2cccc3c(N4CCCC4)ccc(c23)C1=O
ASSIGNED CLASS: 0.0
//
MOLECULE: NC(c1nc2cc(-c3ccncc3)cnc2[nH]1)c1ccc(F)cc1F.O=C(O)C(F)(F)F (centres unmarked)
ASSIGNED CLASS: 1.0
//
MOLECULE: COc1ccccc1-c1ccc(N2CCN(C(=O)COc3ccccc3)CC2)nn1
ASSIGNED CLASS: 1.0

hey, is pEC50 for this one >= 5? CC1=C(C(=O)OCCc2ccccc2)C(c2ccc(Cl)cc2Cl)C2=C(CC(C)(C)CC2=O)N1 (centres unmarked)
1.0

And the next one, CC(=O)NCC(c1cccs1)S(=O)(=O)c1ccc(C)cc1 (centres unmarked) ?
0.0

And the next one, CC1=C(C(=O)OC2CCCCC2)C(c2ccc(F)cc2)C2=C(CC(c3ccccc3)CC2=O)N1 (centres unmarked) ?
0.0

----------
ASSAY SYSTEM: FBW7^ARG+pCycE (Homo sapiens, UniProt Q969H0, R505L)
Construct: GST (TEV site and flexible linker) (N, cleaved yes); made in house; host or cells: SF9 insect cells (baculovirus)
Sequence (Q969H0 64-707 R505L): as the sequence (Q969H0 64-707 R505L) above
Sequence (P63208 2-163 partner): as the sequence (P63208 2-163 partner) above
PROTOCOL NOTES: FBW7^ARG-cyclin E agonist ALPHAscreen (primary PRUN, confirmation CRUN1, dose-response DRUN)
Type: binding
CONDITIONS USED: confirmation assay, triplicate, single concentration 26.1 μM; read-out: FBW7 ACT CRUN1 Avg % Response and Stdev
Quick rule for you: activation at 26.1 µM at 3% or higher means MET, lower means NOT MET.

COMPOUND: CC(=O)NCC(c1cccs1)S(=O)(=O)c1ccc(C)cc1 (stereo not drawn)
ASSIGNED CLASS: NOT MET
//
COMPOUND: CC(C)c1ccc(Nc2nccn3c(-c4ccoc4)cnc23)cc1
ASSIGNED CLASS: NOT MET
//
COMPOUND: CC(C)(C)OC(=O)N/N=C\c1cccs1
ASSIGNED CLASS: NOT MET
//
COMPOUND: CCOC(=O)c1sc2ncn(CC(=O)NCCC3=CCCCC3)c(=O)c2c1C
ASSIGNED CLASS: NOT MET
//
COMPOUND: CCCCCCCC(=O)Nc1ccc(C(=O)Nc2ccc(O)c(C(=O)O)c2)cc1
ASSIGNED CLASS: MET
//
COMPOUND: COc1ccc(NC(=O)c2cc(S(=O)(=O)N3CCN(c4ccccn4)CC3)ccc2F)cc1
ASSIGNED CLASS: NOT MET
//
COMPOUND: COc1cc2c(cc1OC)C(COc1ccc([N+](=O)[O-])cc1)N(C(=O)c1ccc3c(c1)OCO3)CC2 (stereo not drawn)
ASSIGNED CLASS: MET
//
COMPOUND: Fc1ccccc1CSc1nnnn1-c1ccccc1F
ASSIGNED CLASS: MET

Here is another compound to look at.
hey, is activation at 26.1 µM for this one >= 3%? COc1cccc(C=O)c1OC(=O)c1cccc(Cl)c1
MET
